// reported ratio (pH 6.0/7.4) per item
- targetOrSystem: T1, cyno EpCAM (recombinant, ELISA antigen) (cynomolgus monkey)
- T1 construct: extracellular domain; also called cynomolgus EpCAM extracellular domain
- T1 sequence (Q1WER1 24-265): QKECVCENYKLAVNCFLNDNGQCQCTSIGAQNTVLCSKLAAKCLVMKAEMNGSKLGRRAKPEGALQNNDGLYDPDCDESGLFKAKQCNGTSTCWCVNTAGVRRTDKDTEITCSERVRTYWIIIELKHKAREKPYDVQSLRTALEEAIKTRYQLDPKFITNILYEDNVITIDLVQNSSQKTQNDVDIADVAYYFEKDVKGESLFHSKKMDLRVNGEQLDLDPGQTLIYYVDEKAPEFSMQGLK
- protocolDetails: ELISA with pH titration, cyno EpCAM; ratio of binding activities at pH 6.0 and pH 7.4

BA-105-01-01 7376-vcMMAE (antibody, V domains shown, antibody conjugated to vcMMAE; chain and residues of attachment not stated) VH: QVQLQQSGAELAKPGASVKVSCKASGYTFTSYWMHWVKQRPGQGLEWIGYIRPSTGYTEYNQKFKDKATLTADKSSSTAYMQLSSLTFEDSAVYYCGRGDNWVGFANWGQGTLVTVSA VL: QIVLTQSPAIMSASLGEEIALTCSASSSISYMHWYQQKSGTSPKLLIYSTSNLASGVPSRFSGSGSGTFYSLTISSVEAEDAADYFCHQWSTYHTFGSGTKLEIK ... 0.93

So for BA-105.4-01-05 8317-vcMMAE (antibody, V domains shown, antibody conjugated to vcMMAE; chain and residues of attachment not stated) VH: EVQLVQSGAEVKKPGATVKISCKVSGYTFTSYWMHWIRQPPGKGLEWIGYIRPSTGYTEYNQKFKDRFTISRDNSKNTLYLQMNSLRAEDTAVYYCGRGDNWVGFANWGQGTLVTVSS VL: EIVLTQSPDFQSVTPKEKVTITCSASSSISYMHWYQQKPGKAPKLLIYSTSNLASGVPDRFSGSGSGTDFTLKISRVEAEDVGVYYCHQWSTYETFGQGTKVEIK , the logged ratio (pH 6.0/7.4) turned out to be 2.76

So for BA-105.4-02-01 8318-vcMMAE (antibody, V domains shown, antibody conjugated to vcMMAE; chain and residues of attachment not stated) VH: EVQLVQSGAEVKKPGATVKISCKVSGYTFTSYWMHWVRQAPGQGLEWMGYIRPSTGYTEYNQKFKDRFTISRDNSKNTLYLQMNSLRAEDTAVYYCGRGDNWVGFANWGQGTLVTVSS VL: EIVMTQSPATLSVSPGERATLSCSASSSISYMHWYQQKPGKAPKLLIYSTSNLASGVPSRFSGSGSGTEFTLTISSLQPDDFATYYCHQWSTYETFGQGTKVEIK , the logged ratio (pH 6.0/7.4) turned out to be 3.61
